Where these numbers come from: patent US12448388B2

- Procedure Summary: PK data (IV/PO) in Beagle dog
- Test Parameters: in vivo, IV 0.5 mg/Kg, read-out: Observed CL (converted)
Value Kind: clearance (mL/min/kg)

Molecule: C[C@H]1CN(C(=O)c2cc3c(cc2F)nc(N)c2cncn23)[C@H]2c3ccc(C(F)(F)F)cc3C[C@H]2O1 (single isomer, unassigned)
Value Kind: clearance
Test Value: 4.33

Molecule: Nc1nc2cc(F)c(C(=O)N3CCC[C@@H]4Oc5cc(C(F)(F)F)ccc5[C@@H]43)cc2n2cncc12
Value Kind: clearance
Test Value: 3.17

---

- Test system: Symmetric Di-methyl Arginine (SDMA) signal (PRMT5 inhibition) in HCT116 MTAP-deleted cells
- Procedure Summary: Symmetric di-methyl arginine image-based high content screen assay (SDMA assay), HCT116 MTAP-deleted
- Type: cell-based
- Test Parameters: Homo sapiens, HCT-116, HCT116 MTAP-deleted, class symbols
pEC50: −log10 of the molar value.
Value Kind: pEC50

Compound: C[C@H]1CN(C(=O)c2cc3c(cc2F)nc(N)c2cncn23)[C@H]2c3cc(F)c(C4CC4)cc3C[C@H]2O1
pEC50: 8.30 to 9.00
--
Compound: CN(C(=O)c1ccc2nc(N)c3cncn3c2c1)[C@@H]1COc2cc(C34CC(C(F)F)(C3)C4)ccc21
pEC50: ≥ 9.00

Now for the compound whose pEC50 we want.
Considering Nc1nc2cc(F)c(C(=O)N3CCC[C@@H]4OCc5cc(OC(F)F)ccc5[C@@H]43)cc2n2cncc12 (single isomer, unassigned) , its pEC50 with Symmetric Di-methyl Arginine (SDMA) signal (PRMT5 inhibition) in HCT116 MTAP-deleted cells was recorded as ≥ 9.00

---

- Procedure Summary: PK data (IV/PO) in Beagle dog
- Test Parameters: in vivo, IV 0.5 mg/Kg, read-out: Vss
Value Kind: Vd (L/kg)
Express it in L/kg; write the number only.

For this compound ( `Nc1nc2cc(F)c(C(=O)N3CCC[C@@H]4Oc5cc(C(F)(F)F)ccc5[C@@H]43)cc2n2cncc12` ), measured Vd is 2

---

- Procedure Summary: MDR1/BCRP assay: permeability in cPgp-KO-MDCK-WT cells
- Assay type: in vitro ADME
- Test Parameters: dog, pH 7.4
Value Kind: Papp A→B at 2 h, 1 µM (×10⁻⁶ cm/s)

Below: 2 compounds and their reported Papp A→B at 2 h, 1 µM.
Compound: Cc1ncc2c(N)nc3cnc(C(=O)N4CCC[C@@H]5Oc6cc(OC(F)(F)F)ccc6[C@@H]54)cc3n12
Units Text: ×10⁻⁶ cm/s
Papp A→B at 2 h, 1 µM: 16.3
//
Compound: Cc1ncc2c(N)nc3cnc(C(=O)N4CCC[C@@H]5Oc6cc(C(F)(F)F)ccc6[C@@H]54)cc3n12
Units Text: ×10⁻⁶ cm/s
Papp A→B at 2 h, 1 µM: 14.7

I = C[C@@H]1CN(C(=O)c2cc3c(cc2F)nc(N)c2cncn23)[C@H]2c3cc(F)c(OC(F)(F)F)cc3C[C@H]2O1 (single isomer, unassigned)
II = Cc1ncc2c(N)nc3cnc(C(=O)N4CC[C@H]5C[C@@H]4c4ccc(C(F)(F)F)c(F)c4O5)cc3n12
**Q:** Between the entries labeled I and II , whose measured Papp A→B at 2 h, 1 µM is lower? Answer = label.
**A:** II
(II: 10.9 ×10⁻⁶ cm/s, I: 16 ×10⁻⁶ cm/s)

I = Nc1nc2cc(F)c(C(=O)N3CC[C@H]4C[C@@H]3c3ccc(C(F)(F)F)nc3O4)cc2n2cncc12
II = Cc1ncc2c(N)nc3cnc(C(=O)N4CC[C@H]5C[C@@H]4c4cc(F)c(C(F)(F)F)cc4O5)cc3n12
**Q:** Among I and II , which shows a numerically higher Papp A→B at 2 h, 1 µM result? Indicate which entry you chose by stating its label.
**A:** II

---

- Procedure Summary: PK data (IV/PO) in Sprague-Dawley rat
- Type: in vivo
- Test Parameters: Sprague-Dawley, rat, in vivo, iv, 1 mg/kg, IV 1 mg/Kg, read-out: Vss
Value Kind: Vd (L/kg)
Number in L/kg, nothing else.

compound C[C@H]1CN(C(=O)c2cc3c(cc2F)nc(N)c2cncn23)[C@H]2c3ccc(C(F)(F)F)cc3C[C@H]2O1 (single isomer, unassigned) , Vd observed: 1.65

---

Quick reference: CC50 of the listed items.
- Test system: HCT116 MTAP-deleted cell lines
- Procedure Summary: Cell viability assay (CellTiter-Glo, 7 days), HCT116 MTAP-deleted
- Type: cell-based
- Test Parameters: Homo sapiens, HCT-116; cell viability, HCT116 MTAP-deleted; class symbols; read-out: CC50

Answered cases to consult:
Compound: Nc1nc2cc(F)c(C(=O)N3CCC[C@@H]4Oc5cc(OC(F)(F)F)c(F)cc5[C@@H]43)cc2n2cncc12 (racemic) [Ff-333]
Target: HCT116 MTAP-deleted cell lines
CC50: < 100 nM

Compound: Cc1nc2cc([C@H]3CC[C@H](C)CN3C(=O)c3ccc4nc(N)c5cnc(C)n5c4c3)ccc2s1 [Ff-127]
Target: HCT116 MTAP-deleted cell lines
CC50: 100 to 1000 nM

Compound: Nc1nc2cc(F)c(C(=O)N3CCOC[C@@H]3c3ccc(C(F)(F)F)cc3)cc2n2cncc12 [Ff-38]
Target: HCT116 MTAP-deleted cell lines
CC50: < 100 nM

Input C[C@@H]1CN(C(=O)c2cc3c(cn2)nc(N)c2cncn23)[C@H]2c3ccc(OC(F)(F)F)cc3C[C@H]2O1 (single isomer, unassigned) [Ff-185] . Output CC50: < 100 nM

// CN(C(=O)c1cc2c(cc1F)nc(N)c1cncn12)[C@@H]1COc2cc(-c3cnc(C(F)F)s3)ccc21 [Ff-233] : CC50 value = < 100 nM

Consider CN(C(=O)c1cc2c(cn1)nc(N)c1cncn12)[C@H]1c2ccc(C(F)(F)F)cc2[C@@H]2C[C@@H]21 [Ff-254] . Its measured CC50 is 100 to 1000 nM

Notebook: CN(C(=O)c1cc2c(cc1Cl)nc(N)c1cncn12)[C@@H]1COCc2nc(C(F)(F)F)ccc21 [Ff-308] , CC50 read as < 100 nM

For Nc1nc2cc(F)c(C(=O)N3CCCC4OCc5cc(C(F)(F)F)ccc5C43)cc2n2cncc12 (centres unmarked) [Ff-43] the compound record lists CC50 as < 100 nM

Sure, the documented CC50 for Nc1nc2cc(F)c(C(=O)N3CCC[C@@H]4OCc5cc(-c6ccn(C(F)F)n6)ccc5[C@@H]43)cc2n2cncc12 (racemic) [Ff-298] is < 100 nM

CC50 reported for this compound Nc1nc2cc(F)c(C(=O)N3CCC[C@@H]4OCc5cc(-c6cnn(C(F)(F)F)c6)ccc5[C@@H]43)cc2n2cncc12 (racemic) [Ff-295] : < 100 nM

Lab note: measured CC50 of Cc1ncc2c(N)nc3ccc(C(=O)N4C[C@@H](C)O[C@@H]5Cc6cc(OC(F)(F)F)ccc6[C@@H]54)cc3n12 (single isomer, unassigned) [Ff-189] was 100 to 1000 nM

---

- Tested on: SW780 (bladder, urothelial carcinoma; MTAP-Deleted)
- Procedure Summary: In vitro cell viability assay (CellTiter-Glo, 9 days), SW780
- Format: cell-based
- Test Parameters: Homo sapiens, SW780, 216 h, 9-day treatment
Value Kind: GI50 (nM)

A = C[C@H]1CN(C(=O)c2cc3c(cc2F)nc(N)c2cncn23)[C@H]2c3ccc(C(F)(F)F)cc3C[C@H]2O1 (single isomer, unassigned) [Ff-81]
B = Nc1nc2cnc(C(=O)N3CCC[C@@H]4Oc5cc(OC(F)(F)F)ccc5[C@@H]43)cc2n2cncc12 [Ff-341]
**Q:** Please indicate which has the smaller reported GI50: A , or B . Please reply using the label of the selected record.
**A:** B

---

- Test system: HCT116 MTAP-deleted cell lines
- Procedure Summary: Cell viability assay (CellTiter-Glo, 7 days), HCT116 MTAP-deleted
- Format: cell-based
- Test Parameters: Homo sapiens, HCT-116; cell viability, HCT116 MTAP-deleted; class symbols; read-out: CC50
Measured CC50 of individual entries

Here is how some compounds turned out for CC50.
Compound: Nc1nc2cnc(C(=O)N3CCC[C@@H]4Oc5cc(C(F)(F)F)c(F)cc5[C@@H]43)cc2n2cncc12
Test Value: < 100 nM

Compound: Cc1ncc2c(N)nc3ccc(C(=O)N4CCC5(CC4)COc4ccccc45)cc3n12
Test Value: > 1000 nM

Compound: Nc1nc2cc(F)c(C(=O)N3CCC[C@@H]4Oc5cc(C(F)(F)F)ccc5[C@@H]43)cc2n2cncc12
Test Value: < 100 nM

Compound: CN(C(=O)c1cc2c(cc1F)nc(N)c1cncn12)[C@@H]1COc2cc(C#N)ccc21
Test Value: < 100 nM

Compound: CN(Cc1ccc(-c2cnn(C(F)(F)F)c2)cc1F)C(=O)c1cc2c(cc1F)nc(N)c1cncn12
Test Value: 100 to 1000 nM

Compound: Nc1nc2cc(F)c(C(=O)N3CCC[C@@H]4Oc5cc(Cl)ccc5[C@@H]43)cc2n2cncc12
Test Value: < 100 nM

Entry `CN(Cc1ccc2c(c1)OC(F)(F)O2)C(=O)c1cc2c(cc1F)nc(N)c1cncn12` ; CC50 = 100 to 1000 nM

CC50 measured on `CN(C(=O)c1ccc2nc(N)c3cncn3c2c1)[C@@H]1COCc2nc(C(F)(F)F)ccc21` = < 100 nM
